src = the NTF2 design screens of Basanta et al. (2020)

- Experiment Summary: protease stability score; higher = more stable; yeast display proteolysis, trypsin and chymotrypsin;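 note: log10 excess protease needed over predicted unfolded state with 0 meaning unfolded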
Recorded Metric: protease stability score
// return just the number, without any unit appended

protease stability score in this record for DEQTAAKKANELAEAISTGDPERVMELADKDVKVVVGDKTYHGKEDLREMAKRFRDRVDHAQIDSVTNDGEHAKIHMRVEVNGHTVEIDLVIEARNGHAKHLQVDPDDQRKLEG : 0.919

get_value(item= DKEKEADQQVRTADEIYQTGNPEEAKKLADPNVDVRIGDKEYHGDRELAQIIVEKRERVDSLVFHVERINVHPGRFQLNVVLTLKHNGKHETKKEEFVMTKRNGQLRVVHMRDQ , readout=protease stability score) returns 0.056
